Biological target: CDK9/cyclin T1 (Homo sapiens) (UniProt O60563+P50750)
Assay: Inhibition of recombinant human CDK9/cyclin T1 at 10 uM using Ulight-CFFKNIVTPRTPPPSQGK-amide as substrate after 90 mins by fluorescence assay relative to control
Format: protein-complex assay
measure: inhibition (%)

{"smilesData": "CC(C)(C)CC(=O)Nc1n[nH]c2ncc(-c3ccc(O)cc3)cc12", "inhibition [%]": 59}
{"smilesData": "CN(C)CCC(=O)Nc1n[nH]c2ncc(-c3ccc(O)cc3)cc12", "inhibition [%]": 48}

* * *

Target: CDK2/Cyclin A2 (Homo sapiens) (UniProt P24941+P20248)
Assay: Inhibition of recombinant human CDK2/cyclin A at 10 uM using Ulight-CFFKNIVTPRTPPPSQGK-amide as substrate after 15 mins by fluorescence assay relative to control
Format: protein-complex assay
measure: inhibition

Some solved entries appear below for comparison.
{"smilesData": "O=C(Nc1n[nH]c2ncc(-c3ccc(F)cc3)cc12)C1CCCCC1", "measurementTarget": "CDK2/Cyclin A2 (Homo sapiens) (UniProt P24941+P20248)", "inhibition": "< 10%"}
{"smilesData": "CCC(=O)Nc1n[nH]c2ncc(-c3ccc(O)cc3)cc12", "measurementTarget": "CDK2/Cyclin A2 (Homo sapiens) (UniProt P24941+P20248)", "inhibition": "90%"}
{"smilesData": "COc1ccc(-c2cnc3[nH]nc(N)c3c2)cc1", "measurementTarget": "CDK2/Cyclin A2 (Homo sapiens) (UniProt P24941+P20248)", "inhibition": "< 10%"}

Query O=C(O)c1ccc(-c2cnc3[nH]nc(NC(=O)C4CCCCC4)c3c2)cc1 yields inhibition of < 10%
